- studySystem: human PPARγ ligand binding domain (LBD) (Homo sapiens (Human), UniProt P37231)
- Sequence (P37231 238-503): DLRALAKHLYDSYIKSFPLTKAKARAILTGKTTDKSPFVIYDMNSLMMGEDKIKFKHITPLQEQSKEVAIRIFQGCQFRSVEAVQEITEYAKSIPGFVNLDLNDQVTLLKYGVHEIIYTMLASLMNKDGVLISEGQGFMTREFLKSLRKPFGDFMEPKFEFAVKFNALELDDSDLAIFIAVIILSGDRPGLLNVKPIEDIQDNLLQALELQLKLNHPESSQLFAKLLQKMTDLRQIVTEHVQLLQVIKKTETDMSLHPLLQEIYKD
Where a name gives a salt, the structure may show the parent alone.
observedProperty: IC50

>>> experimentalresult("CCO[C@H](Cc1ccc(OC[C@H](O)c2cccc(OC)c2)cc1)C(=O)NOC")
"> 250 µM"
>>> experimentalresult("CCO[C@@H](Cc1ccc(OCc2ccc(S(C)(=O)=O)cc2)cc1)C(=O)NOC")
"> 250 µM"
>>> experimentalresult("CCO[C@@H](Cc1ccc(OCc2cc(OC)ccn2)cc1)C(=O)NO [Compound 3, hydrochloride]")
"> 250 µM"
>>> experimentalresult("CCO[C@@H](Cc1ccc(OC[C@H](O)c2cccc(OC)c2)cc1)C(=O)N(C)OC")
"191 µM"

* * *

Here's a batch of compounds along with measured pIC50 for human PPARγ ligand binding domain (LBD) (Homo sapiens (Human), UniProt P37231).
pIC50: −log10 of the molar value.
observedProperty: pIC50

>>> experimentalresult("CCO[C@@H](Cc1ccc(OCCc2ccc(OS(C)(=O)=O)cc2)cc1)C(=O)N(C)OC [Compound 21]")
5.43
>>> experimentalresult("CCO[C@@H](Cc1ccc(OCCc2ccc(OS(C)(=O)=O)cc2)cc1)C(=O)N(C)O [Compound 20]")
4.96
>>> experimentalresult("CCO[C@@H](Cc1ccc(OCC(=O)c2cccc(OC)c2)cc1)C(=O)NOC [Compound 13]")
4.21
>>> experimentalresult("CCO[C@@H](Cc1ccc(OC[C@@H](O)c2cccc(OC)c2)cc1)C(=O)N(C)OC [Compound 17]")
4.56
>>> experimentalresult("CCO[C@H](Cc1ccc(OCC(=O)c2cccc(OC)c2)cc1)C(=O)N(C)OC [Compound 11]")
4.52
>>> experimentalresult("CCO[C@@H](Cc1ccc(OCc2cccc(I)c2)cc1)C(=O)NO [Compound 7]")
4.93
>>> experimentalresult("CCO[C@@H](Cc1ccc(OCc2ccccn2)cc1)C(=O)NO [Compound 1]")
4.23
>>> experimentalresult("CCO[C@@H](Cc1ccc(OCc2cc(OC)ccn2)cc1)C(=O)N(C)OC [Compound 4]")
4.56
>>> experimentalresult("CCO[C@H](Cc1ccc(OCC(=O)c2cccc(OC)c2)cc1)C(=O)NOC [Compound 8]")
4.01
>>> experimentalresult("CCO[C@@H](Cc1ccc(OCCc2ccc(OS(C)(=O)=O)cc2)cc1)C(=O)NOC [Compound 10]")
5.10
>>> experimentalresult("CCO[C@@H](Cc1ccc(OC[C@@H](O)c2cccc(OC)c2)cc1)C(=O)NOC [Compound 12]")
3.78

* * *

- studySystem: human PPARγ ligand binding domain (LBD) (Homo sapiens (Human))
The entries below are paired with their reported IC50.
observedProperty: IC50

>>> experimentalresult("CCO[C@@H](Cc1ccc(OCc2cc(OC)ccn2)cc1)C(=O)NOC.Cl [Compound 5, hydrochloride]")
"> 250 µM"
>>> experimentalresult("CCO[C@@H](Cc1ccc(OCc2cc(OC)ccn2)cc1)C(=O)N(C)O.Cl [Compound 6, hydrochloride]")
"> 195 µM"
>>> experimentalresult("CCO[C@@H](Cc1ccc(OCC(=O)c2cccc(OC)c2)cc1)C(=O)N(C)OC")
"> 250 µM"
>>> experimentalresult("CCO[C@H](Cc1ccc(OC[C@@H](O)c2cccc(OC)c2)cc1)C(=O)NO")
"> 100 µM"
>>> experimentalresult("CCO[C@@H](Cc1ccc(OC[C@H](O)c2cccc(OC)c2)cc1)C(=O)NOC")
"> 200 µM"
>>> experimentalresult("CCO[C@H](Cc1ccc(OC[C@@H](O)c2cccc(OC)c2)cc1)C(=O)NOC")
"> 250 µM"
